- Read-out: Cyclin D1 (CCND1), CCND1 (gene 595)
- ASSAY_DETAILS: LTEA_HepaRG_CCND1: Life Technologies and Expression Analysis (LTEA) Assay for Cyclin D1 (CCND1) using HepaRG (AID 2283451);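 further: differentiated human HepaRG liver cells in serum-free induction medium; TaqMan qRT-PCR transcript level normalised to ACTB GAPDH and POLR2A housekeeping genes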
- STATED_CONDITIONS: mRNA level, 48 h; actives raise or lower the signal
The source made the active and inactive calls. How the source made its calls: active means hit-call score of the fitted dose curve at least 0.9, where 1 is the maximum; inactive means score below 0.9.
Your answer must be one of the following: 1.0 for active, 0.0 for inactive

Recorded test call requested for N#Cc1cc(Br)c(O)c(Br)c1
1.0

###

- ASSAY_TARGET: Cellular tumor antigen p53 (Homo sapiens) (UniProt P04637)
- Sequence (P04637 whole entry, looked up): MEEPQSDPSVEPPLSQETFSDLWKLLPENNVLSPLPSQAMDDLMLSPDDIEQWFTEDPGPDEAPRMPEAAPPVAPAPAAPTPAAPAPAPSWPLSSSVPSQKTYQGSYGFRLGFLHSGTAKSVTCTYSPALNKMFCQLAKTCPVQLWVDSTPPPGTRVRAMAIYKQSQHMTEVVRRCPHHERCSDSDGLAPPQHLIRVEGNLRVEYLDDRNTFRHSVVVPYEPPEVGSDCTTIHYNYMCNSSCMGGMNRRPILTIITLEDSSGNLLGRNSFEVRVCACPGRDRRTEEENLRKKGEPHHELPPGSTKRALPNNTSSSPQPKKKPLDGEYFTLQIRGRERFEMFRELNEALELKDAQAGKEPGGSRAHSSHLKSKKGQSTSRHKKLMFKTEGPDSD
- ASSAY_DETAILS: TOX21_p53_BLA_p2_ratio: Tox21 HCT-116 p53 Agonism Beta-lactamase Assay, Ratio, Phase 2 (AID 2283592)
- Description: TOX21_p53_BLA_p2 is a cell-based, single-readout assay that uses HCT116, a human intestinal cell line, […] in a 1536-well plate.TOX21_p53_BLA_p2_ratio is an assay readout measuring reporter gene via receptor activity and designed using inducible reporter (beta lactamase induction) detected with GAL4 b-lactamase reporter gene. […] This assay endpoint, TOX21_p53_BLA_p2_ratio, was analyzed in the positive analysis fitting direction relative to DMSO as the negative control and baseline of activity. […]
Inconclusive results are not listed. Activity calls are given as the source filed them. The calls were made as follows: active = hit-call score of the fitted dose curve at least 0.9, where 1 is the maximum; inconclusive = response in the unintended direction; inactive = score below 0.9.
Please state which outcome applies, choosing from 1.0 for active, 0.0 for inactive

Reference set, count: 5
> print(dat)
                                   compound                              assay.target  assigned.category
1                      CCNc1nc(Cl)nc(NCC)n1  Cellular tumor antigen p53 (Homo sapiens) (UniProt P04637)                0.0
2                 COC(=O)C=C(C)OP(=O)(OC)OC  Cellular tumor antigen p53 (Homo sapiens) (UniProt P04637)                0.0
3              CCCCOC(=O)c1ccccc1C(=O)OCCCC  Cellular tumor antigen p53 (Homo sapiens) (UniProt P04637)                0.0
4  C=CC1(C)OC(=O)N(c2cc(Cl)cc(Cl)c2)C1=O (configuration not stated)  Cellular tumor antigen p53 (Homo sapiens) (UniProt P04637)                0.0
5  CC(C)C1(C)N=C(c2nc3ccccc3cc2C(=O)O)NC1=O (configuration not stated)  Cellular tumor antigen p53 (Homo sapiens) (UniProt P04637)                0.0

Let's switch to this compound now.
Per the assay record, what outcome was assigned to O=C(O)COc1nc(Cl)c(Cl)cc1Cl ?
0.0

###

- Read-out: cysteine-aspartic acid protease (CASP8), CASP8 (gene 841)
- ASSAY_DETAILS: LTEA_HepaRG_CASP8: Life Technologies and Expression Analysis (LTEA) Assay for cysteine-aspartic acid protease (CASP8) using HepaRG (AID 2283480)
- STATED_CONDITIONS: mRNA level, 48 h; actives raise or lower the signal
Calls of active or inactive are those of the source. The calls were made as follows: active = hit-call score of the fitted dose curve at least 0.9, where 1 is the maximum; inactive = score below 0.9.
Returns: one label drawn from active, inactive

> print(dat)
                                   compound  assigned.category
1  COC(=O)C(C)Oc1ccc(Oc2ccc(Cl)cc2Cl)cc1 (configuration not stated)           inactive
2  C=CC1(C)OC(=O)N(c2cc(Cl)cc(Cl)c2)C1=O (configuration not stated)           inactive
3  CCCC1COC(Cn2cncn2)(c2ccc(Cl)cc2Cl)O1 (configuration not stated)           inactive

Per the records of this test, what outcome belongs to CC1=C(C(=O)Nc2ccccc2)SCCO1 ?
inactive

So what was the verdict on CCOc1cc(Oc2ccc(C(F)(F)F)cc2Cl)ccc1[N+](=O)[O-] in this test?
inactive

Returns: the outcome recorded for Cc1c(F)c(F)c(COC(=O)C2C(/C=C(\Cl)C(F)(F)F)C2(C)C)c(F)c1F (configuration not stated) in this assay.
inactive

###

- Read-out: Caspase-3 (Homo sapiens) (UniProt P42574)
- Sequence (P42574 whole entry, looked up): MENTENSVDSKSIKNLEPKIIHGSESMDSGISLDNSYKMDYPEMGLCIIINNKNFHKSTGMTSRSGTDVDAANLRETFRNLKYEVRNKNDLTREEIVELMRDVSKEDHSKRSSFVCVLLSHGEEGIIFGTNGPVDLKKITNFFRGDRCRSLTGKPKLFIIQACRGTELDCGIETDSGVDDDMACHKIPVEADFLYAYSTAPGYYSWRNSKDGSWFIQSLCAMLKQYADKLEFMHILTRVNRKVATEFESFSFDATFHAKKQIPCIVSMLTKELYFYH
- ASSAY_DETAILS: LTEA_HepaRG_CASP3: Life Technologies and Expression Analysis (LTEA) Assay for cysteine-aspartic acid protease (CASP3) using HepaRG (AID 2283477)
- STATED_CONDITIONS: mRNA level, 48 h; actives raise or lower the signal
Active and inactive are the calls of the source. The calls were made as follows: active = hit-call score of the fitted dose curve at least 0.9, where 1 is the maximum; inactive = score below 0.9.
Parameter call: string, one of active, inactive

> print(dat)
                                    compound  assigned.category
 1  CCOC(=O)C(Cl)Cc1cc(-n2nc(C)n(C(F)F)c2=O)c(F)cc1Cl (stereo not given)           inactive
 2  CC(Oc1ccc(Cl)cc1Cl)C(=O)O (stereo not given)           inactive
 3  CCCC1COC(Cn2cncn2)(c2ccc(Cl)cc2Cl)O1 (stereo not given)           inactive
 4  C=CC1(C)OC(=O)N(c2cc(Cl)cc(Cl)c2)C1=O (stereo not given)           inactive
 5                                  CNC(=S)S           inactive
 6  COc1cnc(OC)n2nc(NS(=O)(=O)c3c(OCC(F)F)cccc3C(F)(F)F)nc12           inactive
 7              CON(C)C(=O)Nc1ccc(Cl)c(Cl)c1           inactive
 8  CC1COC(Cn2cncn2)(c2ccc(Oc3ccc(Cl)cc3)cc2Cl)O1 (stereo not given)           inactive
 9  N#Cc1nn(-c2c(Cl)cc(C(F)(F)F)cc2Cl)c(N)c1S(=O)C(F)(F)F (stereo not given)           inactive
10                    COC(=O)c1ccccc1C(=O)OC           inactive

Returns: the outcome recorded for CC(C)Oc1cc(-n2nc(C(C)(C)C)oc2=O)c(Cl)cc1Cl in this assay.
inactive

Name the outcome recorded for C=CCC1=C(C)[C@@H](OC(=O)[C@@H]2[C@@H](C=C(C)C)C2(C)C)CC1=O in the assay.
inactive

Hi, do you know how Oc1ccccc1-c1ccccc1 came out in this test?
inactive

###

- Read-out: JUN Transcription Factor, JUN (gene 3725)
- ASSAY_DETAILS: LTEA_HepaRG_JUN: Life Technologies and Expression Analysis (LTEA) Assay for JUN Transcription Factor using HepaRG (AID 2283513)
- STATED_CONDITIONS: mRNA level, 48 h; actives raise or lower the signal
Calls of active or inactive are those of the source. Rule for the calls: active = hit-call score of the fitted dose curve at least 0.9, where 1 is the maximum; inactive = score below 0.9.
One label from this list, please: True (active), False (inactive)

As a guide, the following entries are already answered.
> print(dat)
                                   compound  assigned.category
1  N#CC(CCc1ccc(Cl)cc1)(Cn1cncn1)c1ccccc1 (centres undefined)               True
2                        Oc1ccccc1-c1ccccc1              False

Which result was noted for this compound in the test: CCc1nn(C)c(C(=O)NCc2ccc(C(C)(C)C)cc2)c1Cl
False

I'd appreciate the recorded outcome for CCNc1nc(Cl)nc(NCC)n1 from this test.
False

State the result this test recorded for CCON=C(CC)C1=C(O)CC(c2c(C)cc(C)cc2C)CC1=O (centres undefined) .
False

Record request — test call for CNC(=S)S
False

Which outcome was assigned to CS/C(C)=N/OC(=O)N(C)SN(C)C(=O)O/N=C(\C)SC in this test?
False

###

- Read-out: Paternally Expressed 10 (PEG10), PEG10 (gene 23089)
- ASSAY_DETAILS: LTEA_HepaRG_PEG10: Life Technologies and Expression Analysis (LTEA) Assay for Paternally Expressed 10 (PEG10) using HepaRG (AID 2283520)
- STATED_CONDITIONS: mRNA level, 48 h; actives raise or lower the signal
- Protocol: LTEA_HepaRG is a cell based, multiplexed-readout assay that uses HepaRG, a human liver cell line, with measurements taken at 48 hours after chemical dosing on a 96-well plate.LTEA_HepaRG_PEG10 is one of 102 assay component(s) measured in the LTEA HepaRG cell culture assay. It is a marker of Cell proliferation, survival, death.Data from the assay component LTEA_HepaRG_PEG10 was analyzed into 1 endpoint. […]
The source made the active and inactive calls. How the source made its calls: active means hit-call score of the fitted dose curve at least 0.9, where 1 is the maximum; inactive means score below 0.9.
Response enum: active, inactive

> print(dat)
                            compound  assigned.category
1  CCCCNC(=O)n1c(NC(=O)OC)nc2ccccc21           inactive

Could you check what this test reported for COc1nc(NC(C)C)nc(NC(C)C)n1 ?
inactive

What call does the record list for O=C(O)c1nc(Cl)ccc1Cl ?
inactive

Call for entry N#Cc1cc(Br)c(O)c(Br)c1 :
active

What is the recorded call for this compound in the test? CC(Oc1ccc(Cl)cc1Cl)C(=O)O (configuration not stated)
inactive

Per the records of this test, what outcome belongs to CCCC1COC(Cn2cncn2)(c2ccc(Cl)cc2Cl)O1 (configuration not stated) ?
active

Call for entry O=C(O)COc1nc(Cl)c(Cl)cc1Cl :
active

Source of measurements: PubChem BioAssay (EPA / NIEHS)
